The molecules below have reported pIC50 for phosphorylated PDK1 (Homo sapiens (Human)).
pIC50: −log10 of the molar value.

As a guide, the following entries are already answered.
O=C(NCc1cccc(-c2c[nH]c3ncccc23)c1)c1cccc(Nc2ccccc2)n1: > 6.30
CNc1nc(-c2cccc(CNC(=O)c3cccn(Cc4ccc(F)c(F)c4)c3=O)c2)cn2ccnc12: 5.00 to 6.30
O=C(NCc1cccc(-c2cn[nH]c2)c1)c1cccn(Cc2ccc(F)c(F)c2)c1=O: 5.00 to 6.30
O=C(Nc1cccc(-c2ccc3[nH]c(=O)[nH]c3c2)c1)c1cccn(Cc2ccc(F)c(F)c2)c1=O: 5.00 to 6.30

Q: Provide the reported pIC50 (system: phosphorylated PDK1 (Homo sapiens (Human))) for O=C(O)C[C@@H](NC(=O)c1cccn(Cc2ccc(F)c(F)c2)c1=O)c1ccc(-c2c[nH]c3ncccc23)s1
Sequence (O15530 51-360): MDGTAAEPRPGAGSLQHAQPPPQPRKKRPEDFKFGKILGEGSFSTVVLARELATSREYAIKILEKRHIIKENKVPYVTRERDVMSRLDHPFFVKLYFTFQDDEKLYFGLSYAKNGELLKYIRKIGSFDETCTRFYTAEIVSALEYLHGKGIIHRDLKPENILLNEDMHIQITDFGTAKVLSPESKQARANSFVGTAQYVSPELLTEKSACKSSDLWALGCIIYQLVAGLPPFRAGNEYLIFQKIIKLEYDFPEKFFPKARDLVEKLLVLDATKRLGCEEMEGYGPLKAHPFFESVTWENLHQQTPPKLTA
Result: > 6.30

Q: Provide the reported pIC50 (system: phosphorylated PDK1 (Homo sapiens (Human))) for O=C(O)C[C@@H](NC(=O)c1cccn(Cc2ccc(F)c(F)c2)c1=O)c1nnc(-c2c[nH]c3ncccc23)o1
Result: > 6.30

Q: Provide the reported pIC50 (system: phosphorylated PDK1 (Homo sapiens (Human))) for O=C(NC(COc1ccc2[nH]c(=O)[nH]c2c1)c1ccc(O)cc1)c1cccn(Cc2cc(F)c(F)c(F)c2)c1=O (stereo not shown)
Result: > 6.30

Q: Provide the reported pIC50 (system: phosphorylated PDK1 (Homo sapiens (Human))) for O=C(NCc1ccc(-c2c[nH]c3ncc(CO)cc23)s1)c1cccn(Cc2ccc(F)c(F)c2)c1=O
Result: > 6.30

Q: Provide the reported pIC50 (system: phosphorylated PDK1 (Homo sapiens (Human))) for O=C1Nc2cc(/C=C/CNC(=O)c3cccn(Cc4ccc(F)c(F)c4)c3=O)ccc2/C1=C\c1cccnc1
Result: > 6.30

Q: Provide the reported pIC50 (system: phosphorylated PDK1 (Homo sapiens (Human))) for O=C(NCc1cc(O)cc(-c2c[nH]c3ncccc23)c1)c1cccn(Cc2ccc(F)c(F)c2)c1=O
Result: > 6.30

----------
Measured pIC50 values are reported for all entries that follow.
Molecular target: UniProtKB O15530
pIC50: −log10 of the molar value.

Nc1ncnc2[nH]nc(-c3cccc(CNC(=O)c4cccn(Cc5ccc(F)c(F)c5)c4=O)c3)c12: > 6.30
O=C(NCc1ccc(-c2cccc3[nH]ncc23)s1)c1cccn(Cc2ccc(F)c(F)c2)c1=O: > 6.30
O=C(NCc1cccc(-c2cc[nH]c(=O)c2)c1)c1cccn(Cc2ccc(F)c(F)c2)c1=O: 5.00 to 6.30
COc1ccnc(NCC/C=C/CCNC(=O)c2cccn(Cc3cccc(Cl)c3)c2=O)n1: > 6.30
O=C(NCc1ncc(-c2c[nH]c3ncccc23)o1)c1cccn(Cc2ccc(F)c(F)c2)c1=O: > 6.30
O=C(NCc1cnc(-c2c[nH]c3ncccc23)s1)c1cccn(Cc2ccc(Cl)c(Cl)c2)c1=O: > 6.30

API: the following record is the query input.
Q: State, in one line, measured pIC50 of Cc1ccc(NC(=O)c2cccn(Cc3ccc(F)c(F)c3)c2=O)cc1-c1ccc2[nH]c(=O)[nH]c2c1
Result: 5.00 to 6.30

----------
Target: UniProtKB O15530
pIC50: −log10 of the molar value.
reported-metric: pIC50

COc1ccnc(NCCCCCNC(=O)c2cccn(Cc3ccc(F)c(Cl)c3)c2=O)n1: 5.00 to 6.30
O=C(NCc1noc(-c2c[nH]c3ncccc23)n1)c1cccn(Cc2ccc(Cl)cc2)c1=O: > 6.30
O=C(NCc1noc(-c2c[nH]c3ncccc23)n1)c1cc(Cl)cn(Cc2ccc(Cl)cc2)c1=O: > 6.30

API: the following record is the query input.
Q: Provide the reported pIC50 (system: UniProtKB O15530) for O=C(NCCOc1ccc2[nH]c(=O)[nH]c2c1)c1cccn(Cc2ccc(F)c(F)c2)c1=O
Result: > 6.30
